Tested on: male NMRI mice
experimentSummary: isolation-induced aggressive behaviour
Assay type: in vivo
conditionParameters: Mus musculus, sc, 0.5 hour after drug administration; read-out: ED50 (dose inhibiting aggressive behaviour among 50 percent of the pairs)
Where a name gives a salt, the structure may show the parent alone.
measuredParameter: ED50 (mg/kg)
Form entry: value (mg/kg) — number only.

Would you please look over these solved cases?
- compound: "CCC(=O)N1CCN(CCCC(c2ccc(F)cc2)c2ccc(F)cc2)CC1 [Compound 1, hydrochloride]"
  unit: "mg/kg"
  ED50: 2.8
- compound: "O=C(C1CC1)N1CCN(CCCC(c2ccc(F)cc2)c2ccc(F)cc2)CC1 [Compound 3]"
  unit: "mg/kg"
  ED50: 1.4
- compound: "CC(=O)N1CCN(CCCC(c2ccc(F)cc2)c2ccc(F)cc2)CC1 [B]"
  unit: "mg/kg"
  ED50: 10

Now let's try a different one.
Given the compound CN(C)CCC=C1c2ccccc2CCc2ccccc21 [Amitriptyline] , what is its reported ED50?
5

###

System: male hooded Long-Evans rats
experimentSummary: spontaneous mouse-killing (muricide) by rats
Type: in vivo, rat (hooded Long-Evans)
conditionParameters: Rattus norvegicus, sc, read-out: ED50, spontaneous mouse-killing; s.c., 2 hr after injection
Where a name gives a salt, the structure may show the parent alone.
measuredParameter: ED50 (mg/kg)
Form entry: value (mg/kg) — number only.

Would you please look over these solved cases?
- molecule: "CN(C)CCC=C1c2ccccc2CCc2ccccc21 [Amitriptyline]"
  measuredTarget: "male hooded Long-Evans rats"
  ED50, mg/kg: 6.4
- molecule: "O=C(C1CC1)N1CCN(CCCC(c2ccc(F)cc2)c2ccc(F)cc2)CC1 [Compound 3]"
  measuredTarget: "male hooded Long-Evans rats"
  ED50, mg/kg: 3.7

Now let's try a different one.
Given the molecule CCC(=O)N1CCN(CCCC(c2ccc(F)cc2)c2ccc(F)cc2)CC1 [Compound 1, hydrochloride] , what is its reported ED50?
1.8

###

Tested on: male hooded Long-Evans rats
experimentSummary: spontaneous mouse-killing (muricide) by rats
Format: in vivo, rat (hooded Long-Evans)
conditionParameters: Rattus norvegicus, sc, 1 hr after injection; read-out: ED50, spontaneous mouse-killing, 1 hr
Protocol: For the purpose of detecting new psychotropic substances with antiaggressive properties, pharmacologist have used several different models. […] Each rat was tested for mouse-killing behaviour (killing a mouse within 5 minutes) prior to each experiment, thus serving as its own positive control. […] Doses were selected to form a dose-response curve and the […] (ED50, mg/kg) was calculated by means of linear regression. […]
Structures can show the parent of a compound that is named as a salt.
Entries and their ED50 values follow.
Form entry: value (mg/kg) — number only.

- compound: "CCC(=O)N1CCN(CCCC(c2ccc(F)cc2)c2ccc(F)cc2)CC1 [Compound 1, hydrochloride]"
  measuredTarget: "male hooded Long-Evans rats"
  measuredParameter: "ED50"
  valueObserved: 1

Now let's try a different one.
Given the compound O=C(C1CC1)N1CCN(CCCC(c2ccc(F)cc2)c2ccc(F)cc2)CC1 , what is its reported ED50?
2.6
